// reported AUC per item
- PROTOCOL: Pharmacokinetic experiment in rats
- Format: in vivo, SD rats
- STATED_CONDITIONS: male, SD, rat, plasma; rats, Oral-Dose 20 mg/kg; read-out: Area Curve (AUC, ng/mL · h)
- Description: A certain amount of compound was weighted and dissolved in 0.1% Tween under vortex and ultrasound, and 0.5% carboxymethyl cellulose sodium (CMC-NA) solution was added to form a uniform solution.
Counter-ions that a name gives are not always drawn.
# number only, unit ng·h/mL dropped from output

CCN(c1cc(-c2cc3c(cc2F)CCC32CCOCC2)cc(C(=O)NCc2c(OC)cc(C)[nH]c2=O)c1C)C1CCOCC1 [Example 16]: 1310
CCN(c1cc(-c2ccc3c(c2)N(CC(F)(F)F)C(=O)C32CCOCC2)cc(C(=O)NCc2c(C)cc(C)[nH]c2=O)c1C)C1CCOCC1 [Example 13]: 1190
CCN(c1cc(-c2ccc3c(c2)N(C)C(=O)C32CCN(C(C)C)CC2)c(F)c(C(=O)NCc2c(C)cc(C)[nH]c2=O)c1C)C1CCOCC1 [Example 61]: 1250
CCN(c1cc(-c2ccc3c(c2)NC(=O)C32CCOCC2)cc(C(=O)NCc2c(OC)cc(C)[nH]c2=O)c1C)C1CCOCC1 [Example 115]: 1570
CCN(c1cc(-c2ccc3c(c2)NCC32CCOCC2)cc(C(=O)NCc2c(C)cc(C)[nH]c2=O)c1C)C1CCNCC1 [Example 6]: 1190

Please look up its AUC: CCN(c1cc(-c2ccc3c(c2)C2(CC3)CC(C)N(CC)C(C)C2)cc(C(=O)NCc2c(OC)cc(C)[nH]c2=O)c1C)C1CCOCC1 (stereo not drawn) [Example 50, formate]
1350

Reference source: patent US12473298B2
